Where do the numbers come from? From ChEMBL document CHEMBL1149615.

- assaySystem: Adenosine receptor A3 (Homo sapiens)
- measurementProtocol: Agonist activity at human adenosine A3 receptor after 15 to 30 mins
pEC50: −log10 of the molar value.
parameter: pEC50

IN: For the compound `OC[C@@]12CO[C@@H]([C@H](n3cnc4c(NCc5cccc(I)c5)ncnc43)O1)[C@@H]2O` , give its measured pEC50 value.
OUT: < 4.00

IN: For the compound `Nc1ncnc2c1ncn2[C@@H]1O[C@@]2(CO)CO[C@@H]1[C@@H]2O` , give its measured pEC50 value.
OUT: < 4.00

IN: For the compound `OC[C@@]12CN[C@@H]([C@H](n3cnc4c(NCc5cccc(I)c5)ncnc43)O1)[C@@H]2O` , give its measured pEC50 value.
OUT: < 4.00

====

- assaySystem: Adenosine receptor A3 (Homo sapiens, UniProt P0DMS8)
- Sequence (P0DMS8 whole entry): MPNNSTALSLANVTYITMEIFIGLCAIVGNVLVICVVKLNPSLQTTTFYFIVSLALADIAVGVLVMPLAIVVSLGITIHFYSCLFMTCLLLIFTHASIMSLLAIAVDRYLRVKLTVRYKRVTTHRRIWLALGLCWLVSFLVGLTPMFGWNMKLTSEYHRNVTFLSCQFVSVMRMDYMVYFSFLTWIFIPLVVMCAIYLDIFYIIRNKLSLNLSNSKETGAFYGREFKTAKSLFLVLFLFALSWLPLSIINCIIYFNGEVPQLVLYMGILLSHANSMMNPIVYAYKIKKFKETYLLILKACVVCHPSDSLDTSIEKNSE
- measurementProtocol: Agonist activity at human adenosine A3 receptor after 15 to 30 mins
Would you mind telling me the reported EC50 of each entry?

IN: For the compound `CNC(=O)[C@@]12CN[C@@H]([C@H](n3cnc4c(NCc5cccc(I)c5)ncnc43)O1)[C@@H]2O` , give its measured EC50 value.
OUT: > 100 µM

IN: For the compound `CNC(=O)[C@@]12CO[C@@H]([C@H](n3cnc4c(NCc5cccc(I)c5)ncnc43)O1)[C@@H]2O` , give its measured EC50 value.
OUT: > 100 µM

IN: For the compound `CNC(=O)[C@H]1O[C@@H](n2cnc3c(NCc4cccc(I)c4)ncnc32)[C@H](OC)[C@@H]1O` , give its measured EC50 value.
OUT: 0.0019 µM

IN: For the compound `CNC(=O)[C@@]12CN[C@@H]([C@H](n3cnc4c(N)ncnc43)O1)[C@@H]2O` , give its measured EC50 value.
OUT: > 100 µM

IN: For the compound `CNC(=O)[C@@]12CO[C@@H]([C@H](n3cnc4c(N)ncnc43)O1)[C@@H]2O` , give its measured EC50 value.
OUT: > 100 µM

IN: For the compound `CO[C@@H]1[C@H](O)[C@@H](CO)O[C@H]1n1cnc2c(N)ncnc21` , give its measured EC50 value.
OUT: > 100 µM

IN: For the compound `Nc1ncnc2c1ncn2[C@@H]1O[C@@]2(CO)CN[C@@H]1[C@@H]2O` , give its measured EC50 value.
OUT: > 100 µM

IN: For the compound `CO[C@@H]1[C@H](O)[C@@H](CO)O[C@H]1n1cnc2c(NCc3cccc(I)c3)ncnc21` , give its measured EC50 value.
OUT: > 100 µM

IN: For the compound `CNC(=O)[C@H]1O[C@@H](n2cnc3c(N)ncnc32)[C@H](OC)[C@@H]1O` , give its measured EC50 value.
OUT: 0.453 µM

====

Would you mind telling me the reported IC50 of each entry?
- assaySystem: Adenosine receptor A3 (Homo sapiens)
- measurementProtocol: Antagonist activity at human adenosine A3 receptor after 15 to 30 mins
- Assay type: functional
Your answer is read as nM, so omit the unit and give the number.

IN: For the compound `OC[C@@]12CO[C@@H]([C@H](n3cnc4c(NCc5cccc(I)c5)ncnc43)O1)[C@@H]2O` , give its measured IC50 value.
OUT: 150

IN: For the compound `CO[C@@H]1[C@H](O)[C@@H](CO)O[C@H]1n1cnc2c(NCc3cccc(I)c3)ncnc21` , give its measured IC50 value.
OUT: 1.7

IN: For the compound `CO[C@@H]1[C@H](O)[C@@H](CO)O[C@H]1n1cnc2c(N)ncnc21` , give its measured IC50 value.
OUT: 15

IN: For the compound `CNC(=O)[C@@]12CN[C@@H]([C@H](n3cnc4c(N)ncnc43)O1)[C@@H]2O` , give its measured IC50 value.
OUT: 170

IN: For the compound `OC[C@@]12CN[C@@H]([C@H](n3cnc4c(NCc5cccc(I)c5)ncnc43)O1)[C@@H]2O` , give its measured IC50 value.
OUT: 8.2
